The reported measurements were obtained from the nanobody polyreactivity screen of Harvey et al. (2022).

# ASSAY_EXPLANATION: yeast display, Sf9 membrane polyspecificity reagent, FACS + sequencing; frameworks hold sequencing errors
ASSAY_READOUT: polyreactivity (PSR sort gate)

Example entries and their recorded answers appear below.
| CHAIN | ASSAY_READOUT | REPORTED_RESULT |
| --- | --- | --- |
| QVQLVESGGGLVQAGGSLRLSCAASGTFAGNAIGWYRQAPGKERELVAAINSGGSTNYADSVKGRFTISRDNAKNTVYLQMNSLKPEDTAVYYCAADSVWSPVDYDYWGQGSQVTVSS | polyreactivity (PSR sort gate) | low polyreactivity |
| QVQLVESGGGLVQAGGSLRLSCAASGITFYVKDMGWYRQAPGKEREFVAAISYRGGSTYYADSVKGRFTISRDNAKNTVYLQMNSLKPEDTAVYYCAADYNYWSPHRYDYWGQGTQVTVSW | polyreactivity (PSR sort gate) | low polyreactivity |
| QVQLVESGGGLVQAGGSLRLSCAASGFIFDDNAMGWYRQAPGKERELVAAITSGGGSTYYADSVKGRFTISRDNAKNTVYLQMNSLKPEDTAVYYCARDQTWSYQPWYYLSYPQYEYWGQGTQVTVSS | polyreactivity (PSR sort gate) | low polyreactivity |
| QVHLVESGGGLVQAGGSLRLSCAASGRNFAYNAMGWYRQAPGKETELVASFTSGGSTNYADSVKGRFTISRDNANNTVYLQMNSLKPEDSAVYYCNKDGKYHRVLYDYWGQGTQVTVSS | polyreactivity (PSR sort gate) | low polyreactivity |
| QVQLVESGGGLVQAGGSLRLSCAASGIIFEYYAMGWYRQAPGKERELVAAITRGGSTYYADSVKGRFTISRDNAKNTVYLQMNSLKPEDTAVYYCAADRYYYEYEYWGQGTQVTVSS | polyreactivity (PSR sort gate) | low polyreactivity |

Okay, next one:
Name the recorded polyreactivity (PSR sort gate) for QVQLVESGGGLVQAGGSLRLSCAASGSTFYYYAMGWYRPAPGKERELVAAISSSGGITYYADSVKGRFTISRDNAKNTVYLQMNSLKPEDTAVYYCAADVIVFYYGPNYWGDIGYGYWGQGTQVTVSS .
low polyreactivity
